B1: HDV Ribozyme (parent)
chain: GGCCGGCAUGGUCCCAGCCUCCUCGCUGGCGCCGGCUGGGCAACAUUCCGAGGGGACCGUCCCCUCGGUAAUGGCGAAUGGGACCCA

Variants of: B1
Test: self-cleavage, relative activity (ratio to wild type); higher = more cleavage; co-transcriptional
Documented self-cleavage across a set of variants
RESULT TYPE: self-cleavage

variant_spec="G10A C14G" result_type=self-cleavage reported_result=0.166
variant_spec="A45C C58A" result_type=self-cleavage reported_result=0.519
variant_spec="G1C C85U" result_type=self-cleavage reported_result=0.266
variant_spec="G53A A77U" result_type=self-cleavage reported_result=0.483
variant_spec="U23A C41G" result_type=self-cleavage reported_result=0.849
variant_spec="A8U A51C" result_type=self-cleavage reported_result=0.633
variant_spec="G31U C75G" result_type=self-cleavage reported_result=0.148
variant_spec="G31U C66G" result_type=self-cleavage reported_result=0.266
variant_spec="C44A A51G" result_type=self-cleavage reported_result=0.898
variant_spec="G11A G35C" result_type=self-cleavage reported_result=0.0536
variant_spec="C33U U46A" result_type=self-cleavage reported_result=0.434
variant_spec="C14A C18A" result_type=self-cleavage reported_result=0
variant_spec="G2C A45C" result_type=self-cleavage reported_result=0.0528
variant_spec="C4A C62U" result_type=self-cleavage reported_result=0.248
variant_spec="G1U C48G" result_type=self-cleavage reported_result=0.243
variant_spec="C3G A78G" result_type=self-cleavage reported_result=0.151
variant_spec="U47A C61U" result_type=self-cleavage reported_result=0.814
variant_spec="G10U C58A" result_type=self-cleavage reported_result=0.873
variant_spec="A51G A56U" result_type=self-cleavage reported_result=1
variant_spec="C22G A45U" result_type=self-cleavage reported_result=0.0415
variant_spec="G2A C85A" result_type=self-cleavage reported_result=0.268
variant_spec="G5U G73A" result_type=self-cleavage reported_result=0.0665
variant_spec="C19A G34U" result_type=self-cleavage reported_result=0
variant_spec="C19A G39A" result_type=self-cleavage reported_result=0.114
variant_spec="A42G G67U" result_type=self-cleavage reported_result=0.565
variant_spec="C18G C49G" result_type=self-cleavage reported_result=0.0723
variant_spec="C3A G11U" result_type=self-cleavage reported_result=0.138
variant_spec="C57A C61G" result_type=self-cleavage reported_result=1.05
variant_spec="G1U G5A" result_type=self-cleavage reported_result=0.445
variant_spec="U9A C13G" result_type=self-cleavage reported_result=0.111
variant_spec="A71G G80C" result_type=self-cleavage reported_result=0.271
variant_spec="C41A C57U" result_type=self-cleavage reported_result=0.909
variant_spec="C33G A77C" result_type=self-cleavage reported_result=0.115
variant_spec="C57A A87U" result_type=self-cleavage reported_result=1.13
variant_spec="C44A U69A" result_type=self-cleavage reported_result=0.727
variant_spec="C21A C84G" result_type=self-cleavage reported_result=0.0314

From: the RNAGym collection of RNA variant scans (doi:10.7554/elife.80360)
